The following compounds are shown together with reported Ki values.
Target: Carbonic anhydrase 9 (Homo sapiens)
Assay: Inhibition of human recombinant carbonic anhydrase 9 assessed as CO2 hydration preincubated for 15 mins prior to testing measured for 10 to 100 secs by phenol red dye-based stopped-flow assay
Expressed in µM, but write only the number.

// below: answered compounds
[
  {
    "Smiles repr": "NS(=O)(=O)c1ccc(N/N=C/c2ccc(N3CCN(c4ncccn4)CC3)cc2)cc1",
    "Unit of measurement": "µM",
    "Ki": 2.23
  },
  {
    "Smiles repr": "NS(=O)(=O)c1ccc(C(=O)N/N=C/c2ccc(N3CCN(C(=O)OCc4ccccc4)CC3)cc2)cc1",
    "Unit of measurement": "µM",
    "Ki": 1.9
  }
]

Lookup: # Ki lookup, item "Cc1ccc(N2CCN(c3ccc(/C=N/NC(=O)c4ccc(S(N)(=O)=O)cc4)cc3)CC2)c(C)c1"
Found: 1.66

Lookup: # Ki lookup, item "NS(=O)(=O)c1ccc(C(=O)N/N=C/c2ccc(N3CCN(c4ccc(F)cc4)CC3)cc2)cc1"
Found: 1.96
